FBXL10 (Homo sapiens (Human)) IC50, compiled from various sources.

Entry CN(C)CCCNCc1cc(CN)ccn1 ; assay system FBXL10 (Homo sapiens (Human)); IC50 recorded at > 2500 nM

Entry O=C(O)c1ccnc(-c2cn(CCN(Cc3ccc(F)cc3)C3CC3)cn2)c1 ; assay system FBXL10 (Homo sapiens (Human)); IC50 recorded at ≤ 100 nM

Entry CN1CCOC(Cn2cnc(-c3cc(C(=O)O)ccn3)c2)C1 (stereo not drawn) ; assay system FBXL10 (Homo sapiens (Human)); IC50 recorded at ≤ 100 nM

Entry CCN1CCN(C2=NCCN2S(=O)(=O)c2cccc(OC(F)F)c2)CC1 ; assay system FBXL10 (Homo sapiens (Human)); IC50 recorded at 7.76 nM

Entry FC(F)(F)COc1ccccc1Cn1cnc(-c2cc(-c3nn[nH]n3)ccn2)c1 ; assay system FBXL10 (Homo sapiens (Human)); IC50 recorded at ≤ 100 nM

Entry O=C(c1ccc2c(Oc3ccccc3)cccc2c1)C1CCCN(CC2CC2)C1 (stereo not drawn) ; assay system FBXL10 (Homo sapiens (Human)); IC50 recorded at 175 nM
